Numbers sourced from the supplement of paper PMC9112550.

# System: Escherichia coli TOP10
# test-name: shrunken log2 fold change of peptide-encoding DNA abundance (4.5 h post-induction vs induction); higher = less antimicrobial activity (less host growth inhibition)
# condition-context: time post-induction: 4.5 h; library: site-saturation at positions 5, 18, 19, 20
Quick list: shrunken log2 fold change per entry.
measure-name: shrunken log2 fold change

INSERT INTO measurements (input_sequence, measured_target, observed_measurement) VALUES
  ('RRIRIRPPRLPRPRPRPNAAPRP', 'Escherichia coli TOP10', -0.014),
  ('RRIRIRPPRLPRPRPRPWSIPRP', 'Escherichia coli TOP10', -0.211),
  ('RRIRMRPPRLPRPRPRPVAEPRP', 'Escherichia coli TOP10', 2.88),
  ('RRIRNRPPRLPRPRPRPPAWPRP', 'Escherichia coli TOP10', 0.369),
  ('RRIRLRPPRLPRPRPRPYMQPRP', 'Escherichia coli TOP10', -0.297);

---

# Tested on: Escherichia coli TOP10;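 also: peptides expressed intracellularly from a pBAD plasmid library in pooled LB shake-flask culture, induced with 0.3% L-arabinose, DNA abundance read by NGS, three biological replicates, DESeq2 with apeglm shrinkage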
# test-name: shrunken log2 fold change of peptide-encoding DNA abundance (4.5 h post-induction vs induction); higher = less antimicrobial activity (less host growth inhibition)
# condition-context: time post-induction: 4.5 h; library: site-saturation at positions 5, 18, 19, 20
measure-name: shrunken log2 fold change

INSERT INTO assay_data (input_sequence, measure_name, observed_measurement) VALUES
  ('RRIRDRPPRLPRPRPRPHDYPRP', 'shrunken log2 fold change', -0.0787),
  ('RRIRTRPPRLPRPRPRPYSVPRP', 'shrunken log2 fold change', -0.027),
  ('RRIRFRPPRLPRPRPRPLDKPRP', 'shrunken log2 fold change', -0.103),
  ('RRIRGRPPRLPRPRPRPPEGPRP', 'shrunken log2 fold change', 1.15),
  ('RRIRIRPPRLPRPRPRPIIHPRP', 'shrunken log2 fold change', -0.667),
  ('RRIRPRPPRLPRPRPRPFQAPRP', 'shrunken log2 fold change', -0.216),
  ('RRIRNRPPRLPRPRPRPPMGPRP', 'shrunken log2 fold change', -0.0346),
  ('RRIRMRPPRLPRPRPRPKAWPRP', 'shrunken log2 fold change', 0.0535),
  ('RRIRERPPRLPRPRPRPFMEPRP', 'shrunken log2 fold change', -0.00484),
  ('RRIRIRPPRLPRPRPRPWNQPRP', 'shrunken log2 fold change', 0.00812),
  ('RRIRDRPPRLPRPRPRPADWPRP', 'shrunken log2 fold change', 0.305),
  ('RRIRVRPPRLPRPRPRPSQTPRP', 'shrunken log2 fold change', 0.112),
  ('RRIRVRPPRLPRPRPRPYTWPRP', 'shrunken log2 fold change', -0.364),
  ('RRIRDRPPRLPRPRPRPVQKPRP', 'shrunken log2 fold change', -0.0131),
  ('RRIRIRPPRLPRPRPRPVYVPRP', 'shrunken log2 fold change', -1.58),
  ('RRIRSRPPRLPRPRPRPYGPPRP', 'shrunken log2 fold change', -0.401),
  ('RRIRERPPRLPRPRPRPHNGPRP', 'shrunken log2 fold change', 0.0109),
  ('RRIRHRPPRLPRPRPRPVLNPRP', 'shrunken log2 fold change', 0.157),
  ('RRIRTRPPRLPRPRPRPTEDPRP', 'shrunken log2 fold change', 0.196),
  ('RRIRQRPPRLPRPRPRPSIFPRP', 'shrunken log2 fold change', -0.635),
  ('RRIRKRPPRLPRPRPRPRFYPRP', 'shrunken log2 fold change', 0.33),
  ('RRIRERPPRLPRPRPRPNCNPRP', 'shrunken log2 fold change', -0.848),
  ('RRIRFRPPRLPRPRPRPPEMPRP', 'shrunken log2 fold change', 0.0471),
  ('RRIRSRPPRLPRPRPRPATHPRP', 'shrunken log2 fold change', -0.0838),
  ('RRIRVRPPRLPRPRPRPVPDPRP', 'shrunken log2 fold change', -0.103),
  ('RRIRERPPRLPRPRPRPMSYPRP', 'shrunken log2 fold change', -0.00931),
  ('RRIRKRPPRLPRPRPRPSSCPRP', 'shrunken log2 fold change', 0.31),
  ('RRIRYRPPRLPRPRPRPDRAPRP', 'shrunken log2 fold change', -0.0598),
  ('RRIRFRPPRLPRPRPRPMIIPRP', 'shrunken log2 fold change', -0.871),
  ('RRIRGRPPRLPRPRPRPPAFPRP', 'shrunken log2 fold change', 1.09),
  ('RRIRERPPRLPRPRPRPGGAPRP', 'shrunken log2 fold change', 0.276),
  ('RRIRLRPPRLPRPRPRPWCTPRP', 'shrunken log2 fold change', 0.0254),
  ('RRIRYRPPRLPRPRPRPAVGPRP', 'shrunken log2 fold change', 0.0398),
  ('RRIRCRPPRLPRPRPRPLQLPRP', 'shrunken log2 fold change', -0.546),
  ('RRIRYRPPRLPRPRPRPGGNPRP', 'shrunken log2 fold change', -0.0562),
  ('RRIRARPPRLPRPRPRPDLHPRP', 'shrunken log2 fold change', 0.474),
  ('RRIRWRPPRLPRPRPRPRDWPRP', 'shrunken log2 fold change', 0.958),
  ('RRIRCRPPRLPRPRPRPGMPPRP', 'shrunken log2 fold change', -0.257),
  ('RRIRKRPPRLPRPRPRPSYVPRP', 'shrunken log2 fold change', -0.294),
  ('RRIRQRPPRLPRPRPRPDPTPRP', 'shrunken log2 fold change', 0.119),
  ('RRIRIRPPRLPRPRPRPYMSPRP', 'shrunken log2 fold change', -1.19),
  ('RRIRRRPPRLPRPRPRPAERPRP', 'shrunken log2 fold change', 0.606);
